# RUN_DESCRIPTION: yeast display, Sf9 membrane polyspecificity reagent, FACS + sequencing; frameworks hold sequencing errors
PARAMETER_MEASURED: polyreactivity (PSR sort gate)

The cases that follow already have their polyreactivity (PSR sort gate) on record.
• QVQLVESGGGLVQAGGSLRLSCAASGRIFNPNAMGWYRQAPGKERELVAAITSGDSTNYADSVKGRFTISRDNAKNTVYLQMNSLKPEDTAVYYCAAGPSKRPPWLRQGGYDYWGQGTQVTVSS = low polyreactivity
• QVQLVESGGGLVQAGGSLRLSCAASGFIFYLYAMGWYRQAPGKEMELVAAISWGGGTTYYADSVKGRFTISRDNAKNTVYLKMNSLKPEDTAVYYCAAETEYYSYRFDYWGQGTQVTVSS = high polyreactivity
• QVQLVESGGGLVQAGGSIRLSCAASGSTIGKNVMGWYRQAPGKERELVAAISARGGRTYYGDSVKGRFTISRDNAKNTVYLQMNSLKPVDTAVYYCNTERSYTGTGRYHSSTAYGYWGQGTQVTVSS = high polyreactivity
• QVQHVESGGGLVQAGGSLRLSCAASGSTFGKNTRGWSRQAPGKERELVAAISSRGGSTYYADSGKGRFTISRDNAKNTVYLQMNSLKPEDTAVYYCAAYSVSLGYDYWGQGTQVTVST = high polyreactivity

Please examine the following record next.
Problem: Quote polyreactivity (PSR sort gate) reported for "QVQLVESGGGLVQAGGSLRLSCAASGFTFWYNTMGWYRQAPGKERELVAAINRGGGRTYYADSVKGRFTISRDNAKNTVYLQMNSLKPEDTAVYYCAKKDYYSKVGGPQSEYDYWGQGTQVTVSS" please.
Solution: low polyreactivity
